# SUBJECT_OF_TEST: GIP receptor (Homo sapiens, UniProt P48546)
# Construct: expressed in transfected cells; host or cells: HEK293
# Sequence (P48546 22-466): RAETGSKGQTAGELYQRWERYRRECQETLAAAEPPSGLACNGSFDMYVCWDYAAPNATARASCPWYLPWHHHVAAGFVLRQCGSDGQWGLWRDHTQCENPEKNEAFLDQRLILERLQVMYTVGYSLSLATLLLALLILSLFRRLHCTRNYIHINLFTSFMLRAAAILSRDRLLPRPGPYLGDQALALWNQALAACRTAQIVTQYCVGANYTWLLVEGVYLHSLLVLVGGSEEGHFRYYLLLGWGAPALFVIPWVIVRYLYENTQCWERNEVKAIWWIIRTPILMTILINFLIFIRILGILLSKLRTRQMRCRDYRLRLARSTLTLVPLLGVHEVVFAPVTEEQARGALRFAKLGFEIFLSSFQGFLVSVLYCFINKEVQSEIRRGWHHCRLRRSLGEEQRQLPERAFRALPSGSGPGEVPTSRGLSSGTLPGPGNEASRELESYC
# TEST_DESCRIPTION: cAMP induction at the GIP receptor (agonist activity), luciferase reporter assay in HEK293 cells
# Assay type: cell-based
# SETTINGS: Table 5; relative to standard
# Description: HEK293 cells co-transfected with the receptor and luciferase gene linked to a cAMP responsive element were employed for the bioassay. All EC50s and IC50s are reported in the following examples in nM, unless indicated otherwise.
Bridge positions count the residues as written; N and C are the ends. Square brackets hold non-standard residues; d marks the D form. Side chains are listed from the residue outwards. Ends that are not written are not given here. PEG40kDa = 40 kDa polyethylene glycol; Ac‑Cys = acetylated cysteine; Aib = CC(C)(N)C(=O)O
Give GIPR relative activity for every item shown.
One number for each entry, in %.

1) mt-225: as mt-217 but modified Lys at position 40 and Asn at position 24; SEQ ID NO: 359 (Y[Aib]QGTFTSDYSIYLDEQAAKEFVNWLLAGGPSSGAPPPSK([Ala-Ac‑Cys-PEG40kDa])-NH2; lactam 16-20) | 0.90

Count: 3. Required value per item: GIPR relative activity.
1. mt-220: as mt-217 with Phe as the amino acid spacer; SEQ ID NO: 22 (Y[Aib]QGTFTSDYSIYLDEQAAKEFVK([Phe-Ac‑Cys-PEG40kDa])FLLAGGPSSGAPPPS-NH2; lactam 16-20)
2. mt-228: as mt-220 but modified Lys at position 40 and Asn at position 24; SEQ ID NO: 24 (Y[Aib]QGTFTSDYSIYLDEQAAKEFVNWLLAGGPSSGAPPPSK([Phe-Ac‑Cys-PEG40kDa])-NH2; lactam 16-20)
3. mt-226: as mt-218 but modified Lys at position 40 and Asn at position 24; SEQ ID NO: 23 (Y[Aib]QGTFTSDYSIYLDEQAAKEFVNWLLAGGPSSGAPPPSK([Glu-Ac‑Cys-PEG40kDa])-NH2; lactam 16-20)

0.19
0.75
1.16

Looking up mt-217: lactam 16-20 glucagon analog, Lys24 carrying Ala spacer, acetylated Cys and 40 kDa PEG; SEQ ID NO: 19 (Y[Aib]QGTFTSDYSIYLDEQAAKEFVK([Ala-Ac‑Cys-PEG40kDa])FLLAGGPSSGAPPPS-NH2; lactam 16-20) , I found its GIPR relative activity recorded as 0.20

###

# SUBJECT_OF_TEST: GIP receptor (Homo sapiens)
# Construct: expressed in transfected cells; host or cells: HEK293
# Sequence (P48546 22-466): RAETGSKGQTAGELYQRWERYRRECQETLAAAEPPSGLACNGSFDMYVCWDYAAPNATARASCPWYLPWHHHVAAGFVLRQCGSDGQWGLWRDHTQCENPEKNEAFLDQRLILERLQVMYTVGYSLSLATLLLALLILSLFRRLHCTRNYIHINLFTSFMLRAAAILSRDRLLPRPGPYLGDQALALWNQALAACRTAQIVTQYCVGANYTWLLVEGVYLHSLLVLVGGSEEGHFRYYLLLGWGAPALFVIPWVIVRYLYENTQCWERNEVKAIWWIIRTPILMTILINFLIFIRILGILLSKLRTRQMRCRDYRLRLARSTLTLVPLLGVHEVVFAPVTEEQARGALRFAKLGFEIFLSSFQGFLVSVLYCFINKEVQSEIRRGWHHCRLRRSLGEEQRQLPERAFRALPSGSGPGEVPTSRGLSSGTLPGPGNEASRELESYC
# TEST_DESCRIPTION: cAMP induction at the GIP receptor (agonist activity), luciferase reporter assay in HEK293 cells
# Type: cell-based
# SETTINGS: Table 9
Square brackets hold non-standard residues; d marks the D form. Ends that are not written are not given here. * marks the point of attachment. PEG 40 kDa = PEG of 40 kDa covalently attached to Cys; C16 acyl = 16 carbon fatty acyl group; Myristoyl = CCCCCCCCCCCCCC(=O)*; Aib = CC(C)(N)C(=O)O
QUANTITY: % Relative Activity at GIPR (%)
Give bare numbers, in %.

1. E3K16AIB2,20K10(C16) (Y[Aib]EGTFTSDK(C16 acyl)SIYLDKQAA[Aib]EFVNWLLAGGPSSGAPPPS-NH2) [MT-270] | 163.3
2. E3C24-PEG-K10-C14 (Y[Aib]EGTFTSDK(Myristoyl)SIYLDKQAA[Aib]EFVC(PEG 40 kDa)WLLAGGPSSGAPPPS-NH2) [MT-341] | 27.4
3. K40-C16 (Y[Aib]QGTFTSDYSIYLDKQAA[Aib]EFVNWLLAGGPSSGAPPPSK(C16 acyl)-NH2) [MT-278] | 846.4

Let's switch to this substance now.
Form field % Relative Activity at GIPR for item E3C24-PEG-K40-C14 (Y[Aib]EGTFTSDYSIYLDKQAA[Aib]EFVC(PEG 40 kDa)WLLAGGPSSGAPPPSK(Myristoyl)-NH2) [MT-353] on GIP receptor (Homo sapiens): 102.9

###

# SUBJECT_OF_TEST: glucagon receptor (Homo sapiens, UniProt P47871)
# Sequence (P47871 26-477): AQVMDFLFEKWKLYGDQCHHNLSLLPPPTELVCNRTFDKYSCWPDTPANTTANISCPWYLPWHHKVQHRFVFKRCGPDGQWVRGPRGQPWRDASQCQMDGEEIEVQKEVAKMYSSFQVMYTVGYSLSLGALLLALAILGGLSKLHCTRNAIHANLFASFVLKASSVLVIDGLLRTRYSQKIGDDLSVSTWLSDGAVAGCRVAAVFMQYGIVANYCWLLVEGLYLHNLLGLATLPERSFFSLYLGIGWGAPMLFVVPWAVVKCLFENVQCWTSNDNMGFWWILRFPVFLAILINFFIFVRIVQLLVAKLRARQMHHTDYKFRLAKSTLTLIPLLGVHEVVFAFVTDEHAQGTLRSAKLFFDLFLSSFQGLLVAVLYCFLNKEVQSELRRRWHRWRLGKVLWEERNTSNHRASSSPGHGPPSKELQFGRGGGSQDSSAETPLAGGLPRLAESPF
# TEST_DESCRIPTION: cell-based
# SETTINGS: Table L; inhibit 0.2 mM Glucagon
Square brackets hold non-standard residues; d marks the D form. Ends that are not written are not given here. MCA = alpha-methylhydrocinnamic acid (2-methyl-3-phenylpropanoic acid); PEG 20 kDa = PEG of about 20 kDa linked to Cys (maleimido methoxyPEG); PLA = 3-phenyllactic acid (2-hydroxy-3-phenylpropanoic acid)
QUANTITY: IC50(nM) (cΛMP, inhibit 0.2 mM Glucagon)

1. [MCA6, E9, C24(20 kDaPEG)]Glucagon(aa6-29)-NII2 ([MCA]TSEYSKYLDSRRAQDFVC(PEG 20 kDa)WLMNT-NH2) | no antagonism
2. [PLA6, C8(1.2 kDaPEG), E9]Glucagon(aa6-29)-NH2 ({PLA}-TC(PEG 1.2 kDa)EYSKYLDSRRAQDFVQWLMNT-NH2) | no antagonism
3. [E9, C24(20 kDaPEG)]Glucagon(aa6-29)-NH2 (FTSEYSKYLDSRRAQDFVC(PEG 20 kDa)WLMNT-NH2; not fully specified (residue 1)) | no antagonism

###

# SUBJECT_OF_TEST: glucagon receptor (Homo sapiens, UniProt P47871)
# TEST_DESCRIPTION: cAMP induction at the glucagon receptor (agonist activity), luciferase reporter assay in HEK293 cells
# Format: cell-based
# Parameters: expressed in transfected cells; host or cells: HEK293
# SETTINGS: Table 5; relative to standard
Bridge positions count the residues as written; N and C are the ends. Square brackets hold non-standard residues; d marks the D form. Side chains are listed from the residue outwards. Ends that are not written are not given here. PEG40kDa = 40 kDa polyethylene glycol; Ac‑Cys = acetylated cysteine; Aib = CC(C)(N)C(=O)O
Give GR relative activity for every item shown.
One number for each entry, in %.

1) mt-228: as mt-220 but modified Lys at position 40 and Asn at position 24; SEQ ID NO: 24 (Y[Aib]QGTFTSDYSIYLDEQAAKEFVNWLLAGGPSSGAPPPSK([Phe-Ac‑Cys-PEG40kDa])-NH2; lactam 16-20) | 1.01
2) mt-226: as mt-218 but modified Lys at position 40 and Asn at position 24; SEQ ID NO: 23 (Y[Aib]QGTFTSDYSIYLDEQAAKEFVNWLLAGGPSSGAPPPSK([Glu-Ac‑Cys-PEG40kDa])-NH2; lactam 16-20) | 1.56
3) mt-217: lactam 16-20 glucagon analog, Lys24 carrying Ala spacer, acetylated Cys and 40 kDa PEG; SEQ ID NO: 19 (Y[Aib]QGTFTSDYSIYLDEQAAKEFVK([Ala-Ac‑Cys-PEG40kDa])FLLAGGPSSGAPPPS-NH2; lactam 16-20) | 0.82

Count: 2. Required value per item: GR relative activity.
1. mt-218: as mt-217 with Glu as the amino acid spacer; SEQ ID NO: 20 (Y[Aib]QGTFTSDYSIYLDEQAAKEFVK([Glu-Ac‑Cys-PEG40kDa])FLLAGGPSSGAPPPS-NH2; lactam 16-20)
2. mt-219: as mt-217 with Arg as the amino acid spacer; SEQ ID NO: 21 (Y[Aib]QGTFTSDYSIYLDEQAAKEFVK([Arg-Ac‑Cys-PEG40kDa])FLLAGGPSSGAPPPS-NH2; lactam 16-20)

1: 0.70; 2: 0.65

Count: 3. Required value per item: GR relative activity.
1. mt-227: as mt-219 but modified Lys at position 40 and Asn at position 24; SEQ ID NO: 360 (Y[Aib]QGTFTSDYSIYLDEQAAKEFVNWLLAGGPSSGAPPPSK([Arg-Ac‑Cys-PEG40kDa])-NH2; lactam 16-20)
2. mt-225: as mt-217 but modified Lys at position 40 and Asn at position 24; SEQ ID NO: 359 (Y[Aib]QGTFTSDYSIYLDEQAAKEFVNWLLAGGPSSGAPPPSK([Ala-Ac‑Cys-PEG40kDa])-NH2; lactam 16-20)
3. mt-220: as mt-217 with Phe as the amino acid spacer; SEQ ID NO: 22 (Y[Aib]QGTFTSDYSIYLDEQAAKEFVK([Phe-Ac‑Cys-PEG40kDa])FLLAGGPSSGAPPPS-NH2; lactam 16-20)

1: 1.27; 2: 1.99; 3: 1.18
